Provenance of the data: the array DNA melting data of Ke et al. (doi:10.1101/2024.01.08.574731)

# assay_text: folding enthalpy; higher = less favourable; fluorescence melt of hairpins on a sequencing array, two-state fit
# test_context: sodium 0.088 M
Please provide measured folding enthalpy for the entries that follow.
Report the value in kcal/mol with no unit label.

Give the reported value of folding enthalpy for this record: GTCTGCGAAAGCATCGAC ((((((....)))..)))
-14.8

Give the reported value of folding enthalpy for this record: GCCAGGCGAAAGCCGTGC ((..(((....)))..))
-13.6

Give the reported value of folding enthalpy for this record: GCTTCCCGAAAGGGCAGC (((.(((....))).)))
-32.5

###

# assay_text: melting temperature; fluorescence melt of hairpins on a sequencing array, two-state fit, raised by 9.35 °C to match UV melts
# test_context: sodium 0.088 M
Response field class: enum, chosen by comparing Tm against lower bin: < 40 °C; middle bin: ≥ 40 °C and < 50 °C; upper bin: ≥ 50 °C

For this sequence, which bin applies? GATCACACCAGTGATC ((((((....))))))
upper bin

For this sequence, which bin applies? GTGTCTGGAAACAGGTAC ((..(((....)))..))
lower bin

For this sequence, which bin applies? GCCCGTCCGAAAGGAGGC (((..(((....))))))
middle bin

For this sequence, which bin applies? GACGAAGGAAACTTCATC ((.((((....)))).))
lower bin

For this sequence, which bin applies? GTCCCCGAAAGGGCTGAC ((((((....)))..)))
lower bin

For this sequence, which bin applies? GGGTGCCGAAAGGCTCCC (((.(((....))).)))
upper bin

For this sequence, which bin applies? GATCGGAACGCCGATC ((((((....))))))
upper bin

For this sequence, which bin applies? GCCCTGCGAAAGCTAGGC (((..((....))..)))
upper bin

For this sequence, which bin applies? GACGACCGAAAGGTAGTC (((.(((....))).)))
upper bin

For this sequence, which bin applies? GAGTGAGAAATCACTC ((((((....))))))
upper bin

For this sequence, which bin applies? GCTTATCGAAAGATCAGC (((.(((....))).)))
middle bin

For this sequence, which bin applies? GTTGACGGAAACATCAAC (((((.(....).)))))
lower bin

###

# assay_text: melting temperature; fluorescence melt of hairpins on a sequencing array, two-state fit, raised by 9.35 °C to match UV melts
# test_context: sodium 0.088 M
Please provide measured Tm for the entries that follow.
Report the value in °C with no unit label.

Give the reported value of Tm for this record: GTAATTGAAAAATTAC ((((((....))))))
40.3

Give the reported value of Tm for this record: GGTGATCGAAAGATTACC (((.(((....))).)))
51.1

Give the reported value of Tm for this record: GATCTGATTTCAGATC ((((((....))))))
51.4

Give the reported value of Tm for this record: GGTTCGGGAAACTGAGCC ((.((.(....).)).))
39.3

Give the reported value of Tm for this record: GCTGAGCGAAAGCTTCGC ((..(((....)))..))
49.5

Give the reported value of Tm for this record: GTGCTCGAAAGAGTGCAC ((((((....)))..)))
48.7

Give the reported value of Tm for this record: GGCTTGGGAAACTAGGCC (((.(.(....).).)))
39.4

###

# assay_text: folding enthalpy; higher = less favourable; fluorescence melt of hairpins on a sequencing array, two-state fit
# test_context: sodium 0.088 M
readout: folding enthalpy (kcal/mol)
Report the value in kcal/mol with no unit label.

Give the reported value of folding enthalpy for this record: GTACATCGAAAGATTAC (((.(((....))))))
-20.3

Give the reported value of folding enthalpy for this record: GCTCCTGAAAAGGAGC ((((((....))))))
-42.6

Give the reported value of folding enthalpy for this record: GATCGGTAATCCGATC ((((((....))))))
-40.8

Give the reported value of folding enthalpy for this record: GTTACGGGAAACCGCAAC (((.(((....))).)))
-26

Give the reported value of folding enthalpy for this record: AGAACCAGAAATGGTTCT (((((((....)))))))
-31.4

Give the reported value of folding enthalpy for this record: GTGTTAGGAAACTAACAC (((((((....)))))))
-42.1

Give the reported value of folding enthalpy for this record: GCTCTCCCGAAAGGGAGC (((..(((....))))))
-7.28

Give the reported value of folding enthalpy for this record: GCACACGAAAGTGAGTGC ((((((....)))..)))
-30.9

Give the reported value of folding enthalpy for this record: GAACGCGAAAGCGCTTTC ((((((....)))..)))
-8.13

Give the reported value of folding enthalpy for this record: GATCAGCCTCTGATC ((((((...))))))
-38.5

Give the reported value of folding enthalpy for this record: GATCTTTCGGAAGATC ((((((....))))))
-33.4

Give the reported value of folding enthalpy for this record: GGGACTGAAAAGTCCC ((((((....))))))
-33.7

Give the reported value of folding enthalpy for this record: GACCTGGGAAACCAGATC ((.((((....)))).))
-22.5

Give the reported value of folding enthalpy for this record: GCAAGTGGAAACACCTGC (((.(((....))).)))
-25.3

Give the reported value of folding enthalpy for this record: GATCAGCGAACTGATC ((((((....))))))
-34.4

###

Please provide measured Tm for the entries that follow.
# assay_text: melting temperature; fluorescence melt of hairpins on a sequencing array, two-state fit, raised by 9.35 °C to match UV melts
# test_context: sodium 0.088 M
Report the value in °C with no unit label.

Give the reported value of Tm for this record: GATCCACACCTGGATC ((((((....))))))
51

Give the reported value of Tm for this record: GGCCACGAAAGTGATGCC ((((((....)))..)))
51

Give the reported value of Tm for this record: GACCCCGGAAACAGGGTC (((((.(....).)))))
48.8

Give the reported value of Tm for this record: GAGGCCGAAAGGCTCCTC ((((((....)))..)))
40.8

###

# assay_text: melting temperature; fluorescence melt of hairpins on a sequencing array, two-state fit, raised by 9.35 °C to match UV melts
# test_context: sodium 0.088 M
Response field class: enum, chosen by comparing Tm against low: < 40 °C; middle: ≥ 40 °C and < 50 °C; high: ≥ 50 °C

For this sequence, which bin applies? GCTCGCGAAAGCGGAAGC ((((((....)))..)))
high

For this sequence, which bin applies? GTCCCGGGAAACCGAGAC (((.(((....))).)))
middle

For this sequence, which bin applies? GTTAAACGAAAGTTGAAC (((.(((....))).)))
middle

For this sequence, which bin applies? GATGCCGAAAGGCACATC ((((((....)))..)))
low

For this sequence, which bin applies? GATCTGTATCCAGATC ((((((....))))))
middle

For this sequence, which bin applies? GTGTACGAAAGTAAGCAC ((((((....)))..)))
low

For this sequence, which bin applies? GGATTCGGAAACGAATCC (((((((....)))))))
high

For this sequence, which bin applies? GCGTGCGGAAACGCATGC ((.((((....)))).))
high

For this sequence, which bin applies? ATCACGAAAGTGAT (((((....)))))
high

For this sequence, which bin applies? GCCTTGGGAAACTAGGGC (((.(.(....).).)))
low

For this sequence, which bin applies? GCGGGCGAAAGCCTACGC ((((((....)))..)))
high

For this sequence, which bin applies? GCAAGAGAAATCTTGC ((((((....))))))
high

For this sequence, which bin applies? GATCATACGAATGATC ((((((....))))))
middle

For this sequence, which bin applies? GCGGAAGGAAACCTCCGC (((((.(....).)))))
high

For this sequence, which bin applies? CGAATGCGGAAACGCTCG (((..(((....))))))
low

For this sequence, which bin applies? GGCAGGGAAACCTGCC ((((((....))))))
high

For this sequence, which bin applies? GCGGGGGCCCGC ((((....))))
high

For this sequence, which bin applies? GATGCAGGAAACTGTATC (((.(((....))).)))
middle

For this sequence, which bin applies? GTACAAGGAAACCTGTAC (((((.(....).)))))
low

For this sequence, which bin applies? GTCACCGGAAACGGTGGC (.(((((....))))).)
high

For this sequence, which bin applies? GTAGCTGGAAACAGCTAC (((((((....)))))))
high

For this sequence, which bin applies? GATCAGGACGCTGATC ((((((....))))))
high

For this sequence, which bin applies? GTTTGTGCGAAAGCAAAC (((..(((....))))))
middle

For this sequence, which bin applies? GACGATGGAAACGTCGTC (((((.(....).)))))
high

For this sequence, which bin applies? GACGATGGAAACATTGTC (((.(((....))).)))
middle

For this sequence, which bin applies? GGCCCCGGAAACAGGGCC (((((.(....).)))))
high

For this sequence, which bin applies? GTAGATACGAAAGTATAC (((..(((....))))))
low
